These data points were gathered from patent US20200369626A1.

measurement-target: S1PR2 (Homo sapiens, UniProt O95136)
Construct: purchased
Sequence (O95136 whole entry): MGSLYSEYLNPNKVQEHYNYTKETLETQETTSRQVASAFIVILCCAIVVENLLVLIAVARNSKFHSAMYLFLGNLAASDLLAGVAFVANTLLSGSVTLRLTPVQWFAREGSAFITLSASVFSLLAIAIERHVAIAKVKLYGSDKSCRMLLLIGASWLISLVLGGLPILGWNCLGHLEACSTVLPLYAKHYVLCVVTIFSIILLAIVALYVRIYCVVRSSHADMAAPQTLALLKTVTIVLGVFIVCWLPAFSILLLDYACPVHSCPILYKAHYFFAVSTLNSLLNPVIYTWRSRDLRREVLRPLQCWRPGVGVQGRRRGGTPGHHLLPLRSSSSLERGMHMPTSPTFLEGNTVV
method-summary: competitive [^32P]S1P binding assay on cell membranes, S1PR2
setup-conditions: IC50 S1PR2, Table 5
Recorded IC50 for the following compounds

- CNC(=O)c1ccc(Oc2cc(NC(=O)N3CCC(=O)CC3)cc(C(F)(F)F)c2)cc1 [TZ51-020]: > 1000 nM

Continue with the next compound.
Entry CNC(=O)c1ccc(Oc2cc(NC(=O)N3CCC4(CC3)OCCO4)cc(C(F)(F)F)c2)cc1 [TZ51-022] ; IC50 = > 1000 nM

====

measurement-target: S1PR2 (Homo sapiens)
Construct: purchased
method-summary: competitive [^32P]S1P binding assay on cell membranes, S1PR2
setup-conditions: Table 5; read-out: IC50 S1PR2
pIC50: −log10 of the molar value.
assay-readout: pIC50

Example entries and their recorded answers appear below.
• COc1ccccc1NC(=O)Cn1c(=O)c2ccccc2n(CC(=O)c2ccc(F)cc2)c1=O = < 6.00
• CCC(CC)CC1(O)CCN(C(=O)Nc2cc(Oc3ccc(F)cc3)cc(OC3CCN(C(C)=O)CC3)c2)CC1 = < 6.00
• CCOc1ccc(C(=O)Cn2c(=O)n(Cc3ccccc3)c(=O)c3ccccc32)cc1Cl = < 6.00
• CC(C)CC1(O)CCN(C(=O)Nc2cc(Oc3ccc(OCCF)cc3)cc(Oc3ccc(S(C)(=O)=O)cc3)c2)CC1 = 6.28
• CCC(CC)CC1(O)CCN(C(=O)Nc2cc(OCCCF)cc(Oc3ccc(C(=O)NC)cc3)c2)CC1 = < 6.00
• CCC(CC)CC1(O)CCN(C(=O)Nc2cc(OCCF)cc(C(F)(F)F)c2)CC1 = < 6.00
• CCC(CC)CC1(O)CCN(C(=O)Nc2cc(OCCCF)cc(Oc3ccc(F)cc3)c2)CC1 = < 6.00
• COc1ccc(C(=O)Cn2c(=O)n(CC(=O)Nc3ccccc3OC)c(=O)c3ccccc32)cc1 = < 6.00
• CCC(CC)CC1(O)CCN(C(=O)Nc2cc(C(C)C)c3c(C)nn(C)c3n2)CC1 = < 6.00
• CCOc1ccc(C(=O)Cn2c(=O)n(CCCC(=O)NC3CCCC3)c(=O)c3cc(Cl)ccc32)cc1Cl = 6.53

Continue with the next compound.
Entry CCC(CC)CC1(O)CCN(C(=O)Nc2cc(Sc3ccc(F)cc3)cc(Sc3ccc(S(C)(=O)=O)cc3)c2)CC1 ; pIC50 = 7.17
